The reported numbers originate from ChEMBL document CHEMBL1944523.

- Target Entity: Cytochrome P450 3A4 (Homo sapiens, UniProt P08684)
- Sequence (P08684 whole entry): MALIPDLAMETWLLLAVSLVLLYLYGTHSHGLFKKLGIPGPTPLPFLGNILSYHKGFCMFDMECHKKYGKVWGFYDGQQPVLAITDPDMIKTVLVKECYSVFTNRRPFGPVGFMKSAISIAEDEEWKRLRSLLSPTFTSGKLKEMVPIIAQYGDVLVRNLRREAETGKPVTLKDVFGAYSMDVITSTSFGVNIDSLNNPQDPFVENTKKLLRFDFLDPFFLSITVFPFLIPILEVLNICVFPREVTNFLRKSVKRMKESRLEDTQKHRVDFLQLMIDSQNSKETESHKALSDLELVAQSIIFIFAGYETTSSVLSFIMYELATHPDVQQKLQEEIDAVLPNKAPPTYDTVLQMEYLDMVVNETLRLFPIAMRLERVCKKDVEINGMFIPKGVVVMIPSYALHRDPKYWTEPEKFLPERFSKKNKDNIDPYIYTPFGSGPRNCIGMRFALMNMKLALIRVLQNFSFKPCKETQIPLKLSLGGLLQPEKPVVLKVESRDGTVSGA
- Protocol: Inhibition of CYP3A4
- Assay type: ADME

Structure Notation: COc1ccc2c(-n3c(=O)n(Cc4cccc([C@@]5(C)OC(=O)NC5=O)c4)c4ccccc43)noc2c1
IC50: 22 µM

----------
Entries and their AUC at 240 h
- Protocol: AUC in db/db C57BLKS/J-m +/+ Leprdb mouse at 10 mg/kg, po qd for 10 days measured on day 11
- Assay type: ADME, organism-based
- Parameters: dose 10 mg/kg, route oral
- Test Context: plasma

Compound: CN(CCOc1ccc(CC2SC(=O)NC2=O)cc1)c1ccccn1 (configuration not stated)
AUC at 240 h: 220 µM·h

Compound: COc1ccc2c(-n3c(=O)n(Cc4cccc([C@@]5(C)OC(=O)NC5=O)c4)c4ccccc43)noc2c1
AUC at 240 h: 129 µM·h

----------
- Target Entity: Peroxisome proliferator-activated receptor gamma (Homo sapiens, UniProt P37231)
- Sequence (P37231 whole entry): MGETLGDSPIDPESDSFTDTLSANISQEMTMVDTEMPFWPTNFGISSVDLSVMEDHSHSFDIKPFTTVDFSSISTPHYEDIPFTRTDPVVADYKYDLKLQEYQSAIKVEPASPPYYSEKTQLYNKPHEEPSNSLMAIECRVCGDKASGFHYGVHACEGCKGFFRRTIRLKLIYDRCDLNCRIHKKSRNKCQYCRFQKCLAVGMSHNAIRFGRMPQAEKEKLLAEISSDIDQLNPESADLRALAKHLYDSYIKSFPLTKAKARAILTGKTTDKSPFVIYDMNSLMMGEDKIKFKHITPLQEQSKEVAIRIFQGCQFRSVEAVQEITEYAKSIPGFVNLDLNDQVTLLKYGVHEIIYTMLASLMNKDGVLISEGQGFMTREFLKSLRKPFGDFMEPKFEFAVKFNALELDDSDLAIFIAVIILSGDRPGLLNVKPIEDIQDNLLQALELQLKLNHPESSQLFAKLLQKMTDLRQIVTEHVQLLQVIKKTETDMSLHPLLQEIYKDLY
- Protocol: Binding affinity to human PPARgamma by scintillation proximity assay
Lab note: compare IC50 with 10 nM, writing yes if less and no if equal or more.

Structure Notation: COc1ccc2c(-n3c(=O)n(Cc4cc(O[C@H](C)C(=O)O)ccc4Cl)c4cc(C(F)(F)F)ccc43)noc2c1
Target Entity: Peroxisome proliferator-activated receptor gamma (Homo sapiens, UniProt P37231)
Label Value: yes
//
Structure Notation: C[C@@H](Oc1cc(Cn2c(=O)n(-c3nc4ccc(Cl)cc4s3)c3ccc(C(F)(F)F)cc32)ccc1Cl)C(=O)O
Target Entity: Peroxisome proliferator-activated receptor gamma (Homo sapiens, UniProt P37231)
Label Value: no
//
Structure Notation: COc1ccc2c(-n3c(=O)n(Cc4ccc(Cl)c(O[C@H](C)C(=O)O)c4)c4cc(C(F)(F)F)ccc43)noc2c1
Target Entity: Peroxisome proliferator-activated receptor gamma (Homo sapiens, UniProt P37231)
Label Value: yes
//
Structure Notation: COc1ccc2c(-n3c(=O)n(Cc4ccc([C@@]5(C)OC(=O)NC5=O)cc4)c4cc(C(F)(F)F)ccc43)noc2c1
Target Entity: Peroxisome proliferator-activated receptor gamma (Homo sapiens, UniProt P37231)
Label Value: no
//
Structure Notation: COc1ccc2c(-n3c(=O)n(-c4cccc([C@@]5(C)OC(=O)NC5=O)c4)c4cc(C(F)(F)F)ccc43)noc2c1
Target Entity: Peroxisome proliferator-activated receptor gamma (Homo sapiens, UniProt P37231)
Label Value: no
//
Structure Notation: COc1ccc2c(-n3c(=O)n(Cc4ccc(Cl)c(O[C@H](C)C(=O)O)c4)c4cc(OC(F)(F)F)ccc43)noc2c1
Target Entity: Peroxisome proliferator-activated receptor gamma (Homo sapiens, UniProt P37231)
Label Value: yes
//
Structure Notation: COc1ccc2c(-n3c(=O)n(Cc4cc(O[C@H](C)C(=O)O)ccc4Cl)c4ccccc43)noc2c1
Target Entity: Peroxisome proliferator-activated receptor gamma (Homo sapiens, UniProt P37231)
Label Value: no
//
Structure Notation: COc1ccc2c(-n3c(=O)n(Cc4ccc(Cl)c(O[C@H](C)C(=O)O)c4)c4ccc(C(F)(F)F)cc43)noc2c1
Target Entity: Peroxisome proliferator-activated receptor gamma (Homo sapiens, UniProt P37231)
Label Value: yes
//
Structure Notation: CC[C@@H](Oc1cccc(Cn2c(=O)n(-c3noc4cc(OC)ccc34)c3ccc(C(F)(F)F)cc32)c1)C(=O)O
Target Entity: Peroxisome proliferator-activated receptor gamma (Homo sapiens, UniProt P37231)
Label Value: no
//
Structure Notation: COc1ccc2c(-n3c(=O)n(Cc4ccc(Cl)c(O[C@H](C)C(=O)O)c4)c4ccccc43)noc2c1
Target Entity: Peroxisome proliferator-activated receptor gamma (Homo sapiens, UniProt P37231)
Label Value: yes
//
Structure Notation: C[C@@H](Oc1cc(Cn2c(=O)n(C(=O)c3ccc(Cl)cc3)c3ccc(C(F)(F)F)cc32)ccc1Cl)C(=O)O
Target Entity: Peroxisome proliferator-activated receptor gamma (Homo sapiens, UniProt P37231)
Label Value: no
//
Structure Notation: C[C@@H](Oc1cc(Cn2c(=O)n(-c3noc4cc(Cl)ccc34)c3ccc(C(F)(F)F)cc32)ccc1Cl)C(=O)O
Target Entity: Peroxisome proliferator-activated receptor gamma (Homo sapiens, UniProt P37231)
Label Value: no
//
Structure Notation: COc1ccc2c(-n3c(=O)n(Cc4cc([C@@]5(C)OC(=O)NC5=O)ccc4Cl)c4cc(C(F)(F)F)ccc43)noc2c1
Target Entity: Peroxisome proliferator-activated receptor gamma (Homo sapiens, UniProt P37231)
Label Value: yes
//
Structure Notation: COc1ccc2c(-n3c(=O)n(Cc4ccccc4[C@@]4(C)OC(=O)NC4=O)c4cc(C(F)(F)F)ccc43)noc2c1
Target Entity: Peroxisome proliferator-activated receptor gamma (Homo sapiens, UniProt P37231)
Label Value: no
//
Structure Notation: C[C@]1(c2cccc(Cn3c(=O)n(-c4noc5cc(Cl)ccc45)c4ccccc43)c2)OC(O)=NC1=O
Target Entity: Peroxisome proliferator-activated receptor gamma (Homo sapiens, UniProt P37231)
Label Value: no
//
Structure Notation: Cc1ccc2c(-n3c(=O)n(Cc4ccc(Cl)c(O[C@H](C)C(=O)O)c4)c4cc(C(F)(F)F)ccc43)noc2c1
Target Entity: Peroxisome proliferator-activated receptor gamma (Homo sapiens, UniProt P37231)
Label Value: no
